- target or test system: recombinant human FGFR2 cytoplasmic domain (amino acids 403-822) (Homo sapiens (Human), UniProt P21802)
- Sequence (P21802 402-821): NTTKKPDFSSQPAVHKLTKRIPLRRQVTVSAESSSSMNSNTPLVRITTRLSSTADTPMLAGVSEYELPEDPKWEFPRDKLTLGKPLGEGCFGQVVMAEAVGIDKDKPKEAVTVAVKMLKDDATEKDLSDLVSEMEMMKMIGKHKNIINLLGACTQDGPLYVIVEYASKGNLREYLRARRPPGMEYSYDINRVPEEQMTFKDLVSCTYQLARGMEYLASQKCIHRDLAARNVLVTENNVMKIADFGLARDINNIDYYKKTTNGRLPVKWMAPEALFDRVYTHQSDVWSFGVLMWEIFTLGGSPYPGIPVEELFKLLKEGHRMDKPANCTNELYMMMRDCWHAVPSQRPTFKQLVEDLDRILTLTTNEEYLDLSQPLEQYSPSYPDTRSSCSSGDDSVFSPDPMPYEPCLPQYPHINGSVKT
- run description: FGFR2 enzyme activity assay (LanthaScreen TR-FRET)
- experimental parameters: 15 μM ATP, 20 min incubation at 22° C., average of multiple determinations if made, read-out: FGFR2 Enz FRET IC50
pIC50: −log10 of the molar value.
property measured: pIC50

Here are 8 compounds together with their reported answers.
COc1cc(-c2cnn(C3CCN(C(=O)C4CN(C(=O)/C=C/CN(C)C)C4)CC3)c2)cn2ncc(C#N)c12
8.70
C=CC(=O)N1CC2(CCC(C(=O)N3CCC(n4cc(-c5cc(OC)c6c(C#N)cnn6c5)cn4)CC3)CC2)C1
8.52
C=CC(=O)N1CC(O)(C(=O)N2CCC(n3ncc(-c4cc(OC)c5c(Cl)cnn5c4)c3C)CC2)C1
6.34
COc1cc(-c2cnn(C3CCN(C(=O)C4(F)CN(C(=O)/C=C/CN(C)C)C4)CC3)c2C)cn2ncc(C#N)c12
8.40
C=CC(=O)N1CC(C(=O)N2CCC(n3cc(-c4cc(OC)c5c(C#N)cnn5c4)cn3)CC2)C1(C)C (centres unmarked)
8.52
C=CS(=O)(=O)N1CC[C@H](C(=O)N2CCC(n3cc(-c4cc(OC)c5c(C#N)cnn5c4)cn3)CC2)C1
8.52
C=CC(=O)Nc1ccc(CN2CCC(n3cc(-c4cc(OC)c5c(C#N)cnn5c4)cn3)CC2)cc1
8.30
C=CC(=O)N1CC(C(=O)N2CCC(n3ncc(-c4cc(OC)c5c(C#N)cnn5c4)c3C)CC2)C1(C)C (centres unmarked)
7.74

P. C=CC(=O)N1CCC[C@@H](C(=O)N2CC[C@H](n3cc(-c4cc(OC)c5c(C#N)cnn5c4)cn3)C2)C1
Q. C=CC(=O)N1CC[C@@H](C(=O)N2CCC(n3cc(-c4cc(OC)c5c(C#N)cnn5c4)cn3)CC2)C1
R. C=CC(=O)N1CC(CN2CC(n3ncc(-c4cc(OC)c5c(C#N)cnn5c4)c3C)C2)C1
S. C=CC(=O)N1CC(C(=O)N2CCN(c3ccc(-c4cc(OC)c5c(C#N)cnn5c4)nn3)CC2)C1
T. COc1cc(-c2cnn(C3CCN(C(=O)C4CN(C(=O)C#CCO)C4)CC3)c2)cn2ncc(C#N)c12
Asked: Returns the items ordered by pIC50, from maximum to minimum. Ranked list of labels, please, in the requested order.
Given back: T, P, Q, S, R
(T: 8.52, P: 8.30, Q: 8.10, S: 7.60, R: 6.88)

1. C=CC(=O)N1CC(C(=O)N2C[C@H]3C[C@@H]2CN3c2ccc(-c3cc(OC)c4c(C#N)cnn4c3)cn2)C1
2. C=CC(=O)N1CC2(CC(C(=O)N3CCC(n4cc(-c5cc(OC)c6c(C#N)cnn6c5)cn4)CC3)C2)C1
Asked: Could you kindly indicate whether 1 or 2 has the higher pIC50 value? Answer = label.
Given back: 2

A. COc1cc(-c2cnn(C3CCN(CC4CN(C(=O)/C=C/CN(C)C)C4)CC3)c2)cn2ncc(C#N)c12
B. C=CC(=O)Nc1ccc(C(=O)N2CC[C@@H](n3cc(-c4cc(OC)c5c(C#N)cnn5c4)cn3)C2)cc1
Asked: Could you kindly indicate whether A or B has the higher pIC50 value? Answer = label.
Given back: A
(A: 8.70, B: 8.30)
